Biological target: Human Calpain 1/NS1 (Homo sapiens, UniProt P07384)
Sequence (P07384 1-714): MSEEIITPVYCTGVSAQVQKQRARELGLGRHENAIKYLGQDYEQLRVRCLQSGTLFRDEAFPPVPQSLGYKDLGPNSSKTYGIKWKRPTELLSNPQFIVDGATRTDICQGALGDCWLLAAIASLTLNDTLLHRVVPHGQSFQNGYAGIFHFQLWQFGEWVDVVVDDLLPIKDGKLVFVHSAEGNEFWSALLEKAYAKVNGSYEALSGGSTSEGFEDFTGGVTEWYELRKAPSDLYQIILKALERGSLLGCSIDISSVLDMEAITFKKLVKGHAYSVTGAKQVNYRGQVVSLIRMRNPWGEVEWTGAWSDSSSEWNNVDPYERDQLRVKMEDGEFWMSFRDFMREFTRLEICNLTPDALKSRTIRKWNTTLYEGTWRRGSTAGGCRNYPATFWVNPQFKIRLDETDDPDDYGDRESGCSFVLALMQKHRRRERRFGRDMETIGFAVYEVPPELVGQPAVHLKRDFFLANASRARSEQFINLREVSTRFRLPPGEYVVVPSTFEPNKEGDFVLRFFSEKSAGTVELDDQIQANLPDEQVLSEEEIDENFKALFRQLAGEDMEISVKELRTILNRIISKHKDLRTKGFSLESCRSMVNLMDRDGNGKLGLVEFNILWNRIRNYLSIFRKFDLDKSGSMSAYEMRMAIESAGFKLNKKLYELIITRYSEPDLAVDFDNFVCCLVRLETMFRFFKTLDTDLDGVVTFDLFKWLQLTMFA
Sequence (P04632 1-268 partner): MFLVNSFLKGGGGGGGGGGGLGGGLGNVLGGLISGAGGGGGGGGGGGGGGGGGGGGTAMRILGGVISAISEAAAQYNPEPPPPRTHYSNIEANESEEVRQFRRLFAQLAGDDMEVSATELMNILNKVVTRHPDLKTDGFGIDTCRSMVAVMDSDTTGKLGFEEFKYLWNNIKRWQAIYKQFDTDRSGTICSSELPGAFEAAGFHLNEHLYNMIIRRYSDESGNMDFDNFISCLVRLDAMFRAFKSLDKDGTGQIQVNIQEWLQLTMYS
Assay: Biochemical inhibition of calpain 1, continuous fluorescence (FRET substrate) assay
Conditions: mean, read-out: Human Calpain 1/NS1 IC50 (nM)_MEAN
Property Label: IC50

| Compound | Property Label | Value |
| --- | --- | --- |
| CC(C)NC(=O)C(=O)[C@@H]1C/C=C\COCCOCc2ccccc2C(=O)N1 | IC50 | > 10000 nM |
| O=C(NC1(c2cccnc2)CC1)C(=O)C1CCCCOCCOCc2ccccc2C(=O)N1 (stereo not shown) | IC50 | > 10000 nM |
| O=C[C@@H]1CCCCCOc2ccnc(c2)-c2ccccc2C(=O)N1 | IC50 | < 3000 nM |

### Prompt # input compound: O=C(NC1CC1)C(=O)[C@@H]1Cc2ccc(cc2)OCCCCOc2ccc3c(cnn3-c3ncccc3C(=O)N1)c2 ; wanted: its IC50
### Response < 3000 nM

###

molecular target: Human Calpain 1/NS1 (Homo sapiens, UniProt P07384); assay: Biochemical inhibition of calpain 1, continuous fluorescence (FRET substrate) assay; conditions: mean, read-out: Human Calpain 1/NS1 IC50 (nM)_MEAN
IC50 for assorted compounds

See these solved cases before continuing.
| Compound | IC50 |
| --- | --- |
| O=C(NC1CC1)C(=O)[C@@H]1Cc2ccc(cc2)OC/C=C/COc2ccc3c(cnn3-c3ncccc3C(=O)N1)c2 [Compound 69] | 3000 to 10000 nM |
| O=C(NCc1ccc(Cl)cc1Cl)C(=O)C1CCCCOCCOCc2ccccc2C(=O)N1 (stereo not shown) [Compound 96] | > 10000 nM |

### Prompt # input compound: NC(=O)C(=O)[C@@H]1C/C=C/CCOc2ccnc(n2)-c2ccccc2C(=O)N1 [Compound 137] ; wanted: its IC50
### Response < 3000 nM

### Prompt # input compound: CN1CCN(CCCNC(=O)C(=O)C2CCCCOCCOCc3ccccc3C(=O)N2)CC1 (stereo not shown) [Compound 105] ; wanted: its IC50
### Response > 10000 nM

### Prompt # input compound: O=C(NCc1c(F)cccc1Cl)C(=O)C1CCCCOCCOCc2ccccc2C(=O)N1 (stereo not shown) [Compound 107] ; wanted: its IC50
### Response > 10000 nM

### Prompt # input compound: CCCCNC(=O)C(=O)[C@@H]1CCCCOCCOCc2ccccc2C(=O)N1 [Compound 53] ; wanted: its IC50
### Response > 10000 nM

###

IC50 for assorted molecules
target: Human Calpain 1/NS1 (Homo sapiens); experiment: Biochemical inhibition of calpain 1, continuous fluorescence (FRET substrate) assay; conditions: mean, read-out: Human Calpain 1/NS1 IC50 (nM)_MEAN

See these solved cases before continuing.
| Molecule | IC50 |
| --- | --- |
| NC(=O)C(=O)[C@@H]1CCCCOCCOCc2ccccc2C(=O)N1 | 3000 to 10000 nM |
| COc1cc(CNC(=O)C(=O)C2CCCCOCCOCc3ccccc3C(=O)N2)cc(OC)c1 (centres unmarked) | > 10000 nM |
| O=C(NCc1ccccn1)C(=O)C1CCCCOCCOCc2ccccc2C(=O)N1 (centres unmarked) | > 10000 nM |
| CCNC(=O)C(=O)[C@@H]1Cc2ccc(cc2)OCCCCOc2cccc(c2)-c2ccn(n2)-c2ncccc2C(=O)N1 | < 3000 nM |

### Prompt # input molecule: COc1cccc(CCNC(=O)C(=O)C2CCCCOCCOCc3ccccc3C(=O)N2)c1 (centres unmarked) ; wanted: its IC50
### Response > 10000 nM

### Prompt # input molecule: CC(C)NC(=O)C(=O)[C@@H]1C/C=C/COCCOCc2ccccc2C(=O)N1 ; wanted: its IC50
### Response > 10000 nM

### Prompt # input molecule: CCNC(=O)C(=O)[C@@H]1CC=CCCCCCc2ccccc2C(=O)N1 ; wanted: its IC50
### Response > 10000 nM

### Prompt # input molecule: O=C[C@@H]1C/C=C\COCCOCc2ccccc2C(=O)N1 ; wanted: its IC50
### Response > 10000 nM

###

Biological target: Human Calpain 2/NS1 (Homo sapiens, UniProt P17655)
Sequence (P17655 1-700): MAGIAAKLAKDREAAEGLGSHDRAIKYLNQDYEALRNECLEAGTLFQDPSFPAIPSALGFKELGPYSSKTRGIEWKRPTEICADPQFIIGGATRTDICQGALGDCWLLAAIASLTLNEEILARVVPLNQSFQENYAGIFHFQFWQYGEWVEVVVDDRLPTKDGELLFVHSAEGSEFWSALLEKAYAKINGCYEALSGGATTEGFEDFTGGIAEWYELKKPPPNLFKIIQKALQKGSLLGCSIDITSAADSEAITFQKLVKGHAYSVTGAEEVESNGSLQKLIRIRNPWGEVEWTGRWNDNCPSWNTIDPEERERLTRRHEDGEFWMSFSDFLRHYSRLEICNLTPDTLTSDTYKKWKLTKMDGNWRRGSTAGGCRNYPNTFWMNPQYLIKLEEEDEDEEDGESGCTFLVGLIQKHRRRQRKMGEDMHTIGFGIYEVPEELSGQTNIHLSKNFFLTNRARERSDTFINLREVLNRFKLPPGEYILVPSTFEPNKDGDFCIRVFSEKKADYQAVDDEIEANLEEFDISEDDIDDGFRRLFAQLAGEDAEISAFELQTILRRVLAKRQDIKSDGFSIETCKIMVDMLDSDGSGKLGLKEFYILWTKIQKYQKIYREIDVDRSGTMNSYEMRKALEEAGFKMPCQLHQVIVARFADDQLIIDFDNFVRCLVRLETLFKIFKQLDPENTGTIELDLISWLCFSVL
Sequence (P04632 1-268 partner): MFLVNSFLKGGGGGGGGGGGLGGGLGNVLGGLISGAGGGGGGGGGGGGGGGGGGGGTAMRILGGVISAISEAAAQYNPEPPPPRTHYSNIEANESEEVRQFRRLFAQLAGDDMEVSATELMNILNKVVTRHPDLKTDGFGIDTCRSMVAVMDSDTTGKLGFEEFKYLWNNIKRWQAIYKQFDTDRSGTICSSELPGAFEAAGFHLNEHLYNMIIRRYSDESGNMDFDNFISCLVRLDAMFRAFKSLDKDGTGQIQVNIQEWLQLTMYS
Assay: Biochemical inhibition of calpain 2, continuous fluorescence (FRET substrate) assay
Settings: mean, read-out: Human Calpain 2/NS1 IC50 (nM)_MEAN
Property Label: IC50

### Prompt # input molecule: COc1cccc(CN(C)C(=O)C(=O)C2CCCCOCCOCc3ccccc3C(=O)N2)c1 (centres unmarked) ; wanted: its IC50
### Response > 10000 nM

### Prompt # input molecule: CCNC(=O)C(=O)[C@@H]1Cc2ccc(cc2)OC/C=C/COc2cccc(c2)-c2ccn(n2)-c2ncccc2C(=O)N1 ; wanted: its IC50
### Response < 3000 nM

### Prompt # input molecule: NC(=O)C(=O)[C@@H]1CCCCCOc2ccnc(n2)-c2ccccc2C(=O)N1 ; wanted: its IC50
### Response < 3000 nM

### Prompt # input molecule: O=C(NC1CC1)C(=O)[C@@H]1Cc2ccc(cc2)CCCCc2cccc(c2)-c2ccn(n2)-c2ncccc2C(=O)N1 ; wanted: its IC50
### Response < 3000 nM

### Prompt # input molecule: O=C[C@@H]1Cc2ccc(cc2)CCCCc2cccc(c2)-c2ccn(n2)-c2ncccc2C(=O)N1 ; wanted: its IC50
### Response < 3000 nM

### Prompt # input molecule: O=C[C@@H]1CCCCCCOc2ccnc(n2)-c2ccccc2C(=O)N1 ; wanted: its IC50
### Response < 3000 nM

### Prompt # input molecule: O=C[C@@H]1CCCCCCCCCc2ccccc2C(=O)N1 ; wanted: its IC50
### Response < 3000 nM

### Prompt # input molecule: O=C[C@@H]1CC=CCCCCCc2ncccc2C(=O)N1 ; wanted: its IC50
### Response 3000 to 10000 nM
